measured_target: HCV-NS5b (Hepatitis C virus genotype 1b, UniProt Q9WMX2)
Construct: (His)6 (C); made in house; host or cells: XL-1 cells (E. coli), IPTG-inducible plasmid, nickel-NTA purification
assay_text: HCV-NS5b enzyme assay (incorporation of radiolabeled UTP)
Assay type: biochemical
condition_context: read-out: % inh@100, enzyme inhibition at compound concentration of 100 uM
List of inhibition at 100 µM values.
quantity_measured: inhibition at 100 µM (%)

>  <compound>
O=C(O)c1ccc2[nH]c(-c3ccc4nc(-c5ccccc5-c5ccc(Cl)cc5)ccc4c3)nc2c1

>  <measured_target>
HCV-NS5b (Hepatitis C virus genotype 1b, UniProt Q9WMX2)

>  <result_value>
67.5

$$$$
>  <compound>
NNc1cc(-c2ccccc2)nc2ccc(-c3nc4cc(C(=O)O)ccc4n3C3CCCCC3)cc12

>  <measured_target>
HCV-NS5b (Hepatitis C virus genotype 1b, UniProt Q9WMX2)

>  <result_value>
100

$$$$
>  <compound>
CC(NC(=O)c1ccc2cc(-c3nc4cc(C(=O)O)ccc4n3C3CCCCC3)ccc2n1)C(N)=O (stereo not shown)

>  <measured_target>
HCV-NS5b (Hepatitis C virus genotype 1b, UniProt Q9WMX2)

>  <result_value>
88.5

$$$$
>  <compound>
CCn1c(-c2ccc3nc(-c4cc(OC)ccc4-c4ccc(Cl)cc4)ccc3c2)nc2cc(C(=O)O)ccc21

>  <measured_target>
HCV-NS5b (Hepatitis C virus genotype 1b, UniProt Q9WMX2)

>  <result_value>
101

$$$$
>  <compound>
O=C(N[C@@H](Cc1ccc(O)cc1)C(=O)O)c1ccc2c(c1)nc(-c1ccc3nc(-c4ccccc4)cnc3c1)n2C1CCCCC1

>  <measured_target>
HCV-NS5b (Hepatitis C virus genotype 1b, UniProt Q9WMX2)

>  <result_value>
99.1

$$$$
>  <compound>
O=C(c1ccc2c(c1)nc(-c1cc3ccc(-c4ccccc4-c4ccc(Cl)cc4)nc3cc1F)n2C1CCCCC1)N1CCC(O)CC1

>  <measured_target>
HCV-NS5b (Hepatitis C virus genotype 1b, UniProt Q9WMX2)

>  <result_value>
91.9

$$$$
>  <compound>
O=C(O)c1ccc2c(c1)nc(-c1ccc3nc(-c4ccccc4-c4ccc(Cl)cc4)c(-c4ccccc4)cc3c1)n2C1CCCCC1

>  <measured_target>
HCV-NS5b (Hepatitis C virus genotype 1b, UniProt Q9WMX2)

>  <result_value>
97.8

$$$$

====

List of inhibition at 100 µM values.
measured_target: HCV-NS5b (Hepatitis C virus genotype 1b, UniProt Q9WMX2)
Construct: (His)6 (C); made in house; host or cells: XL-1 cells (E. coli), IPTG-inducible plasmid, nickel-NTA purification
assay_text: HCV-NS5b enzyme assay (incorporation of radiolabeled UTP)
Type: biochemical
condition_context: read-out: % inh@100, enzyme inhibition at compound concentration of 100 uM

>  <compound>
CN1CCN(C(=O)c2ccc3c(c2)nc(-c2cc4ccc(-c5ccccc5-c5ccccc5)nc4cc2F)n3C2CCCCC2)CC1 [Compound 522]

>  <inhibition at 100 µM / %>
74.2

$$$$
>  <compound>
O=C(O)c1ccc2c(c1)nc(-c1ccc3nc(-c4ccc(N5CCNCC5)cc4)ccc3c1)n2C1CCCCC1 [Compound 488]

>  <inhibition at 100 µM / %>
97.2

$$$$
>  <compound>
CCC(CC)n1c(-c2ccc3nc(-c4cc(OC)ccc4-c4ccc(Cl)cc4)ccc3c2)nc2cc(C(=O)O)ccc21 [Compound 564]

>  <inhibition at 100 µM / %>
101

$$$$
>  <compound>
COc1ccc(-c2ccc(C(F)(F)F)cc2)c(-c2ccc3cc(-c4nc5cc(C(=O)O)ccc5n4C4CCCCC4)ccc3n2)c1 [Compound 436]

>  <inhibition at 100 µM / %>
99.3

$$$$
>  <compound>
COc1ccc(-c2ccccc2)c(-c2ccc3cc(-c4nc5cc(C(=O)O)ccc5n4C4CCCCC4)ccc3n2)c1 [Compound 499]

>  <inhibition at 100 µM / %>
99.7

$$$$
>  <compound>
CCOc1cc(-c2ccccc2)nc2ccc(-c3nc4cc(C(=O)O)ccc4n3C3CCCCC3)cc12 [Compound 494]

>  <inhibition at 100 µM / %>
99.2

$$$$
>  <compound>
Cc1cc(-c2nc3cc(C(=O)O)ccc3n2C2CCCCC2)cc2ccc(-c3ccccc3-c3ccc(Cl)cc3)nc12 [Compound 417]

>  <inhibition at 100 µM / %>
98

$$$$

====

measured_target: HCV-NS5b (Hepatitis C virus genotype 1b, UniProt Q9WMX2)
Construct: (His)6 (C); made in house; host or cells: XL-1 cells (E. coli), IPTG-inducible plasmid, nickel-NTA purification
assay_text: HCV-NS5b enzyme assay (incorporation of radiolabeled UTP)
Format: biochemical
condition_context: enzyme inhibition at compound concentration of 33 uM
quantity_measured: inhibition at 33 µM (%)

>  <molecule>
O=C(O)c1ccc2c(c1)nc(-c1ccc3nc(-c4cccc5ccccc45)ccc3c1)n2C1CCCCC1 [Compound 357]

>  <result_units>
%

>  <result_value>
98.8

$$$$
>  <molecule>
COc1ccc2occ(-c3ccc4cc(-c5nc6cc(C(=O)O)ccc6n5C5CCCCC5)ccc4n3)c2c1 [Compound 493]

>  <result_units>
%

>  <result_value>
101

$$$$
>  <molecule>
O=C(O)c1ccc2c(c1)nc(-c1ccc3nc(-c4ccccc4)cc(Sc4ccccc4)c3c1)n2C1CCCCC1 [Compound 467]

>  <result_units>
%

>  <result_value>
96.3

$$$$
>  <molecule>
Cc1nc(-c2ccc(Cl)cc2)sc1-c1ccc2cc(-c3nc4cc(C(=O)O)ccc4n3C3CCCCC3)ccc2n1 [Compound 416]

>  <result_units>
%

>  <result_value>
101

$$$$
>  <molecule>
O=C(N[C@@H](Cc1ccc(-c2ccccc2)cc1)C(=O)O)c1ccc2c(c1)nc(-c1ccc3nc(-c4ccccc4)cnc3c1)n2C1CCCCC1 [Compound 240]

>  <result_units>
%

>  <result_value>
95.7

$$$$
>  <molecule>
CN1CCN(C(=O)c2ccc3c(c2)nc(-c2cc4ccc(-c5ccccc5-c5ccc(Cl)cc5)nc4cc2F)n3C2CCCCC2)CC1 [Compound 521]

>  <result_units>
%

>  <result_value>
84.8

$$$$
>  <molecule>
COc1cccc(O)c1-c1ccc2cc(-c3nc4cc(C(=O)O)ccc4n3C3CCCCC3)ccc2n1 [Compound 434]

>  <result_units>
%

>  <result_value>
105

$$$$
>  <molecule>
O=C(c1ccc2c(c1)nc(-c1cc3ccc(-c4ccccc4-c4ccccc4)nc3cc1F)n2C1CCCCC1)N1CCC(O)CC1 [Compound 410]

>  <result_units>
%

>  <result_value>
84.3

$$$$
>  <molecule>
CN(C)c1ccc(-c2nc3ccc(-c4nc5cc(C(=O)O)ccc5n4C4CCCCC4)cc3nc2-c2ccc(N(C)C)cc2)cc1 [Compound 458]

>  <result_units>
%

>  <result_value>
100

$$$$
>  <molecule>
NCCCC[C@H](NC(=O)c1ccc2c(c1)nc(-c1ccc3nc(-c4ccccc4)ccc3c1)n2C1CCCCC1)C(=O)O [Compound 232]

>  <result_units>
%

>  <result_value>
60.5

$$$$
>  <molecule>
CC(C)[C@H](NC(=O)c1ccc2cc(-c3nc4cc(C(=O)O)ccc4n3C3CCCCC3)ccc2n1)C(N)=O [Compound 511]

>  <result_units>
%

>  <result_value>
78.4

$$$$
>  <molecule>
COc1ccc(-c2ccc(Cl)cc2)c(-c2ccc3cc(-c4nc5cc(C(=O)O)ccc5n4Cc4ccccc4)ccc3n2)c1 [Compound 559]

>  <result_units>
%

>  <result_value>
101

$$$$
>  <molecule>
O=C(O)c1ccc2c(c1)nc(-c1ccc3nc(-c4cccnc4)ccc3c1)n2C1CCCCC1 [Compound 355]

>  <result_units>
%

>  <result_value>
72.3

$$$$
>  <molecule>
O=C(O)c1ccc2c(c1)nc(-c1ccc3nc(-c4cc(Cl)ccc4-c4ccc(Cl)cc4)ccc3c1)n2C1CCCCC1 [Compound 567]

>  <result_units>
%

>  <result_value>
101

$$$$

====

measured_target: HCV-NS5b (Hepatitis C virus genotype 1b, UniProt Q9WMX2)
Construct: (His)6 (C); made in house; host or cells: XL-1 cells (E. coli), IPTG-inducible plasmid, nickel-NTA purification
assay_text: HCV-NS5b enzyme assay (incorporation of radiolabeled UTP)
Format: biochemical
condition_context: read-out: % inh@100, enzyme inhibition at compound concentration of 100 uM

>  <compound>
COc1ccc(-c2ccc(Cl)cc2)c(-c2ccc3cc(-c4nc5cc(-c6nnn[nH]6)ccc5n4C4CCCCC4)ccc3n2)c1 [Compound 525]

>  <result_units>
%

>  <inhibition at 100 µM>
101

$$$$
>  <compound>
Cc1cc(-c2nc3cc(C(=O)O)ccc3n2C2CCCCC2)cc2ccc(-c3ccccc3)nc12 [Compound 397]

>  <result_units>
%

>  <inhibition at 100 µM>
99.3

$$$$
>  <compound>
COc1cc(OC)cc(-c2ccc3cc(-c4nc5cc(C(=O)O)ccc5n4C4CCCCC4)ccc3n2)c1 [Compound 495]

>  <result_units>
%

>  <inhibition at 100 µM>
101

$$$$
>  <compound>
COc1ccc(-c2ccc(CN)cc2)c(-c2ccc3cc(-c4nc5cc(C(=O)O)ccc5n4C4CCCCC4)ccc3n2)c1 [Compound 384]

>  <result_units>
%

>  <inhibition at 100 µM>
99.3

$$$$
